Data origin, for the record: patent US20250034269A1

biological target: human LTBR on cells (human, UniProt P36941 31-435); assay: cell-based or functional assay
recordedEndpoint: NFκB luc, 3.66 ng/ml, with x linker
In your response, put the unit directly after the numeric value.

Lookup: Need NFκB luc, 3.66 ng/ml, with x linker of P1AE1873 (CBE11) (antibody, human IgG1, kappa, L234A L235A, V domains shown) VH: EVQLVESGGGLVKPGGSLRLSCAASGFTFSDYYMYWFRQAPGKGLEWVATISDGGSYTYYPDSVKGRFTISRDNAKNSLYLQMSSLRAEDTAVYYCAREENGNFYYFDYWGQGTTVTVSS VL: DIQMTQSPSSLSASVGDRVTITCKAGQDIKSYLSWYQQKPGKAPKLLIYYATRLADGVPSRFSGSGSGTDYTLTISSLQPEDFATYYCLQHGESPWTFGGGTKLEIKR , thanks.
Found: 50900 RLU
